System: L1210 leukemia ip in BDF1 mice, survival T/C
Assay: NCI In Vivo Anticancer Drug Screen. Data for tumor model L1210 Leukemia (intraperitoneal) in B6D2F1 (BDF1) mice
Details: endpoint: mean survival time; dose: 400.0 mg/kg/injection; schedule: Q04DX003 (ip); vehicle: Klucel (hydroxypropylcellulose) (HPC); higher = longer survival
Toxic doses and inconclusive results are not listed.
Recorded T/C by entry

entry smiles: O=C(Nc1ccc(Cl)c(Cl)c1)Oc1ccc(C2CCCCC2)cc1
T/C: 101 % of control

entry smiles: CC(=O)Nc1ccc(S(=O)(=O)Nc2ccc(C(=O)O)cc2)cc1
T/C: 92 % of control

entry smiles: O=C(O)CCC(=O)Nc1ccccc1
T/C: 101 % of control

entry smiles: CC(=O)CC(=O)Nc1cc(Cl)ccc1C
T/C: 92 % of control

entry smiles: CCn1c(C)cc(=O)n1-c1ccc([N+](=O)[O-])cc1
T/C: 98 % of control

entry smiles: BrC1(Br)CC1(c1ccccc1)c1ccccc1
T/C: 97 % of control

* * *

Recorded T/C by entry
System: L1210 leukemia ip in BDF1 mice, survival T/C
Assay: NCI In Vivo Anticancer Drug Screen. Data for tumor model L1210 Leukemia (intraperitoneal) in B6D2F1 (BDF1) mice
Conditions: endpoint: mean survival time; dose: 100.0 mg/kg/injection; schedule: Q04DX002 (ip); vehicle: Klucel (hydroxypropylcellulose) (HPC); higher = longer survival
Toxic doses and inconclusive results are not listed.

molecule: C=CCOc1c(Br)cc(Br)cc1Br
T/C: 95 % of control
//
molecule: NC(=O)C(Cl)CCl (centres undefined)
T/C: 101 % of control
//
molecule: CC(O)(c1ccncc1)c1cc2ccccc2n1S(=O)(=O)c1ccccc1 (centres undefined)
T/C: 95 % of control
//
molecule: Cc1cc(OC(=O)Nc2ccccc2C)ccc1Cl
T/C: 111 % of control

* * *

Recorded T/C by entry
System: L1210 leukemia ip in BDF1 mice, survival T/C
Assay: NCI In Vivo Anticancer Drug Screen. Data for tumor model L1210 Leukemia (intraperitoneal) in B6D2F1 (BDF1) mice
Conditions: endpoint: mean survival time; dose: 100.0 mg/kg/injection; schedule: Q01DX009 (ip); vehicle: other; higher = longer survival
Inconclusive results and toxic doses are left out.

entry smiles: Nc1cc(Cl)cc(Cl)c1C(=O)O
T/C: 94 % of control
//
entry smiles: Cc1ccc(NC(=O)Oc2ccc(OC(=O)Cc3ccccc3)cc2)cc1NC(=O)Oc1ccc(OC(=O)Cc2ccccc2)cc1
T/C: 96 % of control
//
entry smiles: COc1cc(OCc2ccccc2)c(CC(=O)O)c([N+](=O)[O-])c1
T/C: 93 % of control
//
entry smiles: O=C(COc1ccc(Cl)cc1)Nc1ccc(Cl)cc1C(=O)c1ccccc1
T/C: 102 % of control
//
entry smiles: Cc1cccc(CN(CC(=O)O)S(C)(=O)=O)c1
T/C: 102 % of control
//
entry smiles: COc1cccc2c1C(=O)c1c(OC)c(C(Br)Br)cc(OC)c1C2=O
T/C: 89 % of control

* * *

Tested on: L1210 leukemia ip in BDF1 mice, survival T/C
Test: NCI In Vivo Anticancer Drug Screen. Data for tumor model L1210 Leukemia (intraperitoneal) in B6D2F1 (BDF1) mice
Settings: endpoint: mean survival time; dose: 100.0 mg/kg/injection; schedule: Q01DX001 (ip); vehicle: other; higher = longer survival
Toxic doses and inconclusive results are not listed.
endpoint: T/C

compound: COc1cc(OCc2ccccc2)c(CC(=O)O)c([N+](=O)[O-])c1
measurement target: L1210 leukemia ip in BDF1 mice, survival T/C
result: 104 % of control
//
compound: Cc1cc(Cl)c(Cl)cc1NC(=O)c1ccccc1F
measurement target: L1210 leukemia ip in BDF1 mice, survival T/C
result: 94 % of control
//
compound: CC(=O)OCC(=O)C12OC1CC1C3CCC4CC(=O)CCC4(C)C3CC(=O)C12C (configuration not stated)
measurement target: L1210 leukemia ip in BDF1 mice, survival T/C
result: 89 % of control
//
compound: CCCS/C(N)=N/N=C/c1ccc([N+](=O)[O-])o1
measurement target: L1210 leukemia ip in BDF1 mice, survival T/C
result: 94 % of control
//
compound: ClCC1Oc2ccccc2O1
measurement target: L1210 leukemia ip in BDF1 mice, survival T/C
result: 101 % of control
//
compound: O=C(OOC(=O)c1ccccc1)c1ccccc1
measurement target: L1210 leukemia ip in BDF1 mice, survival T/C
result: 94 % of control
//
compound: Cc1cc(O)c(C)c2c1CC[C@H]1[C@@H]2OC(=O)[C@@H]1C
measurement target: L1210 leukemia ip in BDF1 mice, survival T/C
result: 98 % of control

* * *

Recorded T/C by entry
Test system: L1210 leukemia ip in BDF1 mice, survival T/C
Assay: NCI In Vivo Anticancer Drug Screen. Data for tumor model L1210 Leukemia (intraperitoneal) in B6D2F1 (BDF1) mice
Settings: endpoint: mean survival time; dose: 100.0 mg/kg/injection; schedule: Q04DX003 (ip); vehicle: carboxymethylcellulose (CMC); higher = longer survival
Procedure: The antitumor activity of compounds was measured in mice bearing transplantable tumors. Survival or tumor size were measured and the results are expressed as the measurement made in the treated group (T) divided by the measurement made in the vehicle treated control group (C). The tumor model used in this assay is L1210 Leukemia (intraperitoneal) in B6D2F1 (BDF1) mice
Inconclusive results and toxic doses are left out.

entry smiles: [O-]/[N+](=C\c1ccccc1)Cc1ccccc1
T/C: 94 % of control

entry smiles: CCCCCCCC(=O)N(CC(C)C)CC(C)C
T/C: 97 % of control

entry smiles: C/C=C\c1ccc(OC(=O)NC)c(OC)c1
T/C: 96 % of control

entry smiles: CCOC(=O)c1ccc2c(ccc3ccccc32)n1
T/C: 105 % of control

entry smiles: COC(=O)c1ccccc1N(C)C(=O)Nc1ccc(F)cc1
T/C: 104 % of control

* * *

System: L1210 leukemia ip in BDF1 mice, survival T/C
Experiment: NCI In Vivo Anticancer Drug Screen. Data for tumor model L1210 Leukemia (intraperitoneal) in B6D2F1 (BDF1) mice
Settings: endpoint: mean survival time; dose: 200.0 mg/kg/injection; schedule: Q04DX003 (ip); vehicle: Klucel (hydroxypropylcellulose) (HPC); higher = longer survival
Inconclusive results and toxic doses are left out.
Recorded T/C by entry

compound: O=C(N/N=C/c1ccc2c(c1)CCC2)c1cccs1
T/C: 103 % of control
//
compound: CC(=O)Nc1ccc(/C=C/C(=O)c2ccc(C)cc2)cc1
T/C: 103 % of control
//
compound: Cc1nnc(NC(=O)NCCCl)s1
T/C: 107 % of control
//
compound: O=C(Cl)c1ccc(C(Cl)(Cl)Cl)cc1
T/C: 111 % of control
//
compound: CC1C=CC=CC=C1
T/C: 93 % of control
//
compound: CN(CCCl)C(=O)Nc1ccc(Cl)cc1
T/C: 94 % of control
//
compound: Cc1cc(=O)[nH]c(N/N=C/c2ccccc2O)n1
T/C: 94 % of control
//
compound: CC(C)C[As](=O)(O)O
T/C: 95 % of control
//
compound: CC1(C)CC(Cc2ccccc2)C(=O)O1 (centres undefined)
T/C: 90 % of control
//
compound: CCCCCCCCCCCCCCOc1ccc(C(=O)CC(=O)OC)cc1
T/C: 98 % of control
//
compound: CNCCC(=O)c1ccccc1
T/C: 99 % of control
//
compound: C(=N\C(/N=C/c1ccco1)c1ccco1)/c1ccco1
T/C: 98 % of control
//
compound: O=C1NOCC1N=Cc1ccccc1O (centres undefined)
T/C: 98 % of control
//
compound: O=C1c2c(cccc2NCCO)Cc2cccc(NCCO)c21
T/C: 93 % of control

* * *

Recorded T/C by entry
Test system: L1210 leukemia ip in BDF1 mice, survival T/C
Experiment: NCI In Vivo Anticancer Drug Screen. Data for tumor model L1210 Leukemia (intraperitoneal) in B6D2F1 (BDF1) mice
Conditions: endpoint: mean survival time; dose: 400.0 mg/kg/injection; schedule: Q01DX009 (ip); vehicle: saline with Tween-80; higher = longer survival
Toxic doses and inconclusive results are not listed.

compound: CC(=O)OCC(OC(C)=O)C(OC(C)=O)C(C=O)OC(C)=O (stereo not drawn)
measurement target: L1210 leukemia ip in BDF1 mice, survival T/C
T/C: 88 % of control
--
compound: CC1CC2(C)C(CC1=O)CC(C)C1C3CCC(O)C3(C)CCC12 (stereo not drawn)
measurement target: L1210 leukemia ip in BDF1 mice, survival T/C
T/C: 94 % of control
--
compound: CCCCOB=O
measurement target: L1210 leukemia ip in BDF1 mice, survival T/C
T/C: 98 % of control
--
compound: O=[N+]([O-])c1ccc(CN=NCc2ccc(Cl)cc2Cl)c(Cl)c1
measurement target: L1210 leukemia ip in BDF1 mice, survival T/C
T/C: 95 % of control
--
compound: CC(=O)Nc1cc(C(=O)O)cc(C(F)(F)F)c1
measurement target: L1210 leukemia ip in BDF1 mice, survival T/C
T/C: 97 % of control
--
compound: CCOC(=O)CNC1=NCCO1
measurement target: L1210 leukemia ip in BDF1 mice, survival T/C
T/C: 93 % of control
--
compound: COC1=C(OC)C(=O)C(SC/C=C(\C)CCCC(C)CCCC(C)CCCC(C)C)=CC1=O (stereo not drawn)
measurement target: L1210 leukemia ip in BDF1 mice, survival T/C
T/C: 115 % of control
--
compound: CCCC(=O)Oc1ccc2c(C)cc(=O)oc2c1
measurement target: L1210 leukemia ip in BDF1 mice, survival T/C
T/C: 106 % of control
--
compound: CC(O)c1cccc([N+](=O)[O-])c1 (stereo not drawn)
measurement target: L1210 leukemia ip in BDF1 mice, survival T/C
T/C: 90 % of control
--
compound: COC(OC)c1nc(NC(C)=O)[nH]c(=O)c1Cc1ccc(N)cc1
measurement target: L1210 leukemia ip in BDF1 mice, survival T/C
T/C: 97 % of control
--
compound: N#CCCNc1ccccc1
measurement target: L1210 leukemia ip in BDF1 mice, survival T/C
T/C: 86 % of control
--
compound: Cc1ccc(C(=O)C2CC2)c(C)c1
measurement target: L1210 leukemia ip in BDF1 mice, survival T/C
T/C: 109 % of control
--
compound: O=C1Cc2ccccc21
measurement target: L1210 leukemia ip in BDF1 mice, survival T/C
T/C: 96 % of control
